target: FXYD2-gamma-a subunit (Homo sapiens); assay: Dissociation constant (Kd) determination of phage display clone and synthetized peptides; conditions: binding to FXYD2-gamma-a subunit
Sequence (P54710 whole entry): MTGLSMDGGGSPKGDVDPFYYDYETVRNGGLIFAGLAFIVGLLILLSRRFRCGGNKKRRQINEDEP
Where no end group is shown, it is not given here.
Value type: pKd
Answers are plain numbers, as −log10 of the molar value.

// lookup pKd | system=FXYD2-gamma-a subunit (Homo sapiens) | key= LPLSRHYGGGSVPFYSHSNTHHTSM [P88]
5.72
